Target: Oxytocin receptor (Homo sapiens, UniProt P30559)
Sequence (P30559 whole entry): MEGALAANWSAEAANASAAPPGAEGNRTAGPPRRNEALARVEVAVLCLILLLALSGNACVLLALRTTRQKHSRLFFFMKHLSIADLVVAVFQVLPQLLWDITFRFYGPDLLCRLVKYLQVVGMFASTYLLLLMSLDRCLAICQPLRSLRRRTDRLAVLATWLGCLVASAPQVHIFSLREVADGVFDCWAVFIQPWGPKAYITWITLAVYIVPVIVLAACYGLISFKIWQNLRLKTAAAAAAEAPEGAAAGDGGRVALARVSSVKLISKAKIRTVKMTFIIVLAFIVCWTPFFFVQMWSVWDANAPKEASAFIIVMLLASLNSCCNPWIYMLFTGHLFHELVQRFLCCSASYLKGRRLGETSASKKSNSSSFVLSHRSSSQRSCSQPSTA
Assay: Agonist activity at human oxytocin receptor expressed CHO cells assessed as calcium flux by FLIPR method
pEC50: −log10 of the molar value.
Below: a set of entries, each annotated with reported pEC50.

{"columns": ["SUBSTANCE_SMILES", "pEC50"],
 "data": [
  ["O=S(=O)(Nc1ccnn1-c1ncc(C(F)(F)F)cn1)c1ccc(C(F)(F)F)cc1", 5.80],
  ["O=S(=O)(Nc1ccnn1-c1ccccn1)c1ccc(Cl)cc1F", 7.72]
]}
